target or system: T1, human Natriuretic Peptide Receptor 1 (hNPR1) (human, UniProt P16066 33-473, limits assumed)
T1 construct: pannings used NPR1-hFc; also called NPR1-hFc
T1 sequence: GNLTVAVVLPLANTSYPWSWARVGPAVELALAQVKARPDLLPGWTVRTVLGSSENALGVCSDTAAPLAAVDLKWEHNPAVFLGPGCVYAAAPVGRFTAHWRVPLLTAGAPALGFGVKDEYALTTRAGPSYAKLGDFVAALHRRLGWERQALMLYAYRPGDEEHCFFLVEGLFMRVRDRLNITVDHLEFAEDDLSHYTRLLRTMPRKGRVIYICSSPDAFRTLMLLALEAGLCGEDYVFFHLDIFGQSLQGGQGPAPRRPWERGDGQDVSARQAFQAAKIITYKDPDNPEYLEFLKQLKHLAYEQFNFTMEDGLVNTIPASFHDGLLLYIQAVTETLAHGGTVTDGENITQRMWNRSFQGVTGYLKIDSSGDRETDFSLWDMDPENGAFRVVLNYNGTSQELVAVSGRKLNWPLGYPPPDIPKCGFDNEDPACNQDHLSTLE
test description: ELISA, 1 µM IgG
Parameters: unit not given here
parameter: ELISA binding at 1 µM IgG
Form field (numeric): enter value without unit.

As a guide, the following entries are already answered.
# input Give me measured ELISA binding at 1 µM IgG, please, for this binder: YY05 (IgG format) (antibody, V domains shown, also called YY05_LALA) VH: EVQLVQSGAEVKKPGESLKISCKGSGYSFTSYWISWVRQMPGKGLEWMGIIYPGTSYTRYSPSFQGQVTISADKSISTAYLQWSSLKASDTAMYYCARGAVAGQLGFDHWGQGTLVTVSS VL: QSVLTQPPSVSGAPGQRVTISCTGSSSNIGAGYDVHWYQQLPGTAPKLLIYGNSNRPSGVPDRFSGSKSGTSASLAITGLQAEDEADYYCQSYYTSSHGPVFGGGTKLTVLG
# output 81

# input Provide one value: measured ELISA binding at 1 µM IgG of YY01 (IgG format) (antibody, V domains shown, also called YY01_LALA) VH: EVQLVESGGGLVQPGGSLRLSCAASGFTFSSYWISWVRQAPGKGLEWVANIKQSGSETYYVESVKGRFTISRDNAKNSLYLQMNSLRAEDTAVYYCARSLRRRSTEHAGFDVWGQGTLVTVSS VL: DIQMTQSPSSLSASVGDRVTITCRASQGISNYLAWYQQKPGKVPKLLIYAASTLQSGVPSRFSGSGSGTDFTLTISSLQPEDVATYYCQQADKFPYTFGQGTKVEIKR
# output 54

# input Indicate the recorded ELISA binding at 1 µM IgG value for this binder: YY06 (IgG format) (antibody, V domains shown, also called YY06_LALA) VH: EVQLLESGGGLVQPGGSLRLSCAASGFTFSSYAISWVRQAPGKGLEWVSAISGSGGSTYYAESVKGRFTISRDNSKNTLYLQMNSLRAEDTAVYYCARPYLGDRRSYGFDHWGQGTLVTVSS VL: QSALTQPASVSGSPGQSITISCTGTSSDVGSYNLVSWYQQHPGKAPKLMIYEGSKRPSGVSNRFSGSKSGNTASLTISGLQAEDEADYYCSSYGFHIVVVVFGGGTKLTVLG
# output 91

For the next question, use this binder.
# input Tell me its ELISA binding at 1 µM IgG given YY07 (IgG format) (antibody, V domains shown, also called YY07_LALA) VH: EVQLVQSGAEVKKPGESLKISCKGSGYSFTSYWISWVRQMPGKGLEWMGIIYPGTSYTRYSPSFQGQVTISADKSISTAYLQWSSLKASDTAMYYCARGSLPGLLGFDHWGQGTLVTVSS VL: QSVLTQPPSVSGAPGQRVTISCTGSSSNIGAGYDVHWYQQLPGTAPKLLIYGNSNRPNGVPDRFSGSKSGTSASLAITGLQAEDEADYYCQSYDSPTSSSVFGGGTKLTVLG as the entry.
# output 68

Sourced from patent US20240052042A1
